Target: Cytochrome P450 2D6 (Homo sapiens)
Assay: Cytochrome P450 Family 2 Subfamily D Member 6 (CYP2D6) small molecule antagonists: luciferase reporter qHTS assay (AID 1671196); further: nearly all actives have a fitted effect of over 50% in size; further: potency means the concentration at half of the fitted maximal effect
Settings: P450-Glo CYP2D6 enzyme assay, luciferin luminescence, 1 h; series mostly up to 115 µM
Results filed as inconclusive are left out. Calls of active or inactive are those of the source. The call rests on the fitted dose curve; in most records, active means well fitted inhibition curve with a large enough effect in the repeat runs; inconclusive means weak or mixed curves; inactive means no such curve, though single readings can be large or run the other way.
ENDPOINT_NAME: Potency

INSERT INTO measurements (compound, endpoint_name, reported_measurement) VALUES
  ('COCCOC[C@H](CC1(C(=O)NC2CCC(C(=O)O)CC2)CCCC1)C(=O)Oc1ccc2c(c1)CCC2 (some centres not stated)', 'Potency', 'inactive'),
  ('CCOC(=O)COc1cc(-n2ncc(C(F)(F)F)c(C)c2=O)c(F)cc1Cl', 'Potency', '63.3 µM (active)'),
  ('CC(=O)c1ccccc1[N+](=O)[O-]', 'Potency', 'inactive'),
  ('CC(C)(CCC(=O)O)C(=O)O', 'Potency', 'inactive'),
  ('O=[N+]([O-])c1ccc(/C=N\O)o1', 'Potency', 'inactive'),
  ('CCOC(=O)COC(=O)c1ccccc1C(=O)OCC', 'Potency', 'inactive'),
  ('CC(C)C1CCC(O)CC1 (configuration not stated)', 'Potency', 'inactive'),
  ('CN1[C@@H]2CC[C@H]1CC(OC(=O)C(O)c1ccccc1)C2 (some centres not stated)', 'Potency', 'inactive');

Respectfully, I request Potency for each entry included below.
1. O=C1CCCCCCCCCCCCCCO1
2. CC[N+](CC)(CC(=O)Nc1c(C)cccc1C)Cc1ccccc1 (tested in a mixture with another compound)
3. CC(C)c1ccc2ncccc2c1
4. C[N+]1(C)CCCC(OC(=O)C(O)(c2ccccc2)c2ccccc2)C1 (configuration not stated)
5. CCCC(C)C(=O)OCC (configuration not stated)

1. inactive
2. 0.0262 µM (active)
3. inactive
4. 4.9 µM (active)
5. inactive

Respectfully, I request Potency for each entry included below.
1. C[N+]1(CC2COC(c3ccccc3)(c3ccccc3)O2)CCCCC1 (configuration not stated)
2. Cc1nc2ccc(CN(C)c3ccc(C(=O)N[C@@H](CCC(=O)O)C(=O)O)s3)cc2c(=O)[nH]1
3. [Ca+2]
4. CCC(C(=O)NC(=O)NC(C)=O)c1ccccc1 (configuration not stated)

["1.69 µM (active)", "inactive", "35.6 µM (active)", "inactive"]

Respectfully, I request Potency for each entry included below.
1. CCCCCC(=O)OCCc1ccccc1
2. CCOC(=O)CCC(=O)OCC
3. CC(=O)c1cnccn1

["inactive", "inactive", "inactive"]

Respectfully, I request Potency for each entry included below.
1. CC(CO)(CO)[N+](=O)[O-]
2. Cc1nc(C2CCCCC2)c(-c2ccc(S(N)(=O)=O)c(F)c2)o1
3. CC(=O)N1C[C@H](O)C[C@H]1C(=O)O
4. CCN[C@H]1C[C@H](C)S(=O)(=O)c2sc(S(N)(=O)=O)cc21

1: inactive; 2: 13.8 µM (active); 3: inactive; 4: inactive

Respectfully, I request Potency for each entry included below.
1. CCCn1cc[n+](C)c1C
2. CC1=CC(=O)[C@H]2C[C@@H]1C2(C)C

1. inactive
2. inactive

Give the measured Potency of NC(=O)Cc1cccc2ccccc12 .
inactive

----------
Assay: A CellTox Green Cytotoxicity Assay to monitor cytotoxicity in HEK293 cells - 16 hour (AID 1224888); further: on the % scale 0 is the no-effect control and ±100 the full control effect; nearly all actives have a fitted effect of over 35% in size
Conditions: CellTox Green fluorescence, active compounds read high; series mostly up to 76.8 µM
Records with an inconclusive call do not appear. Calls of active or inactive are those of the source. The call rests on the fitted dose curve; in most records, active means well fitted activation curve with a large enough effect in the repeat runs; inconclusive means weak or mixed curves; inactive means flat fitted curve, though single readings scatter.
ENDPOINT_NAME: activity change

INSERT INTO measurements (structure_smiles, reported_measurement) VALUES
  ('Cc1ccccc1N=C(N)N=C(N)N', 'inactive'),
  ('O=S(=O)(O)c1cccc2ccccc12', 'inactive'),
  ('C=CC(=O)OCCCl', 'inactive'),
  ('CC(=O)c1ccccc1[N+](=O)[O-]', 'inactive'),
  ('NC(N)=NCCN1CCCCCCC1', '1.24% [at 0.29 µM] (inactive)'),
  ('CN1CCC(=C2c3ccccc3CCc3cccnc32)CC1', 'inactive'),
  ('N[C@@H](CCC(=O)O)C(=O)O', 'inactive');

Next:
Give the measured activity change of CCCCCC(=O)OCCc1ccccc1 .
inactive

----------
System: thyroid hormone receptor (rat, GH3 cells)
Assay: qHTS assay to identify small molecule agonists of the thyroid receptor (TR) signaling pathway (AID 743066); further: on the % scale 0 is the no-effect control and ±100 the full control effect
Conditions: GH3.TRE-Luc cells, TR agonist luciferase, 24 h; series mostly up to 83.9 µM
Results filed as inconclusive are left out. The source made the active and inactive calls. Calls come from the whole dose curve.
ENDPOINT_NAME: activation

INSERT INTO results (structure_smiles, endpoint_name, reported_measurement) VALUES
  ('CCCCCCCCCCCCCCCCCCO', 'activation', 'inactive'),
  ('CCOC(=O)c1cnc2c(cnn2CC)c1NN=C(C)C', 'activation', 'inactive'),
  ('CC(C)NNC(=O)c1ccncc1', 'activation', 'inactive'),
  ('CO[Si](C)(OC)c1ccccc1', 'activation', 'inactive'),
  ('CC(=O)N[C@H]1[C@H]([C@H](O)[C@H](O)CO)OC(C(=O)O)=C[C@@H]1N=C(N)N', 'activation', 'inactive'),
  ('CCC(=O)OCc1ccccc1', 'activation', 'inactive');

Next:
Give the measured activation of N[C@@H](CCC(=O)O)C(=O)O .
inactive

----------
Assay: qHTS assay to identify small molecule antagonists of the thyroid receptor (TR) signaling pathway (AID 743065); further: nearly all actives have a fitted effect of over 55% in size
Settings: GH3.TRE-Luc, T3-stimulated luciferase inhibition, 23.5 h; series mostly up to 70.3 µM
Results filed as inconclusive are left out. Activity calls are given as the source filed them. The call rests on the fitted dose curve; in most records, active means well fitted inhibition curve with a large enough effect in the repeat runs; inconclusive means weak or mixed curves; inactive means no such curve, though single readings can be large or run the other way.
Select the correct class. Options are class 1 = active, class 0 = inactive and nothing else.

INSERT INTO results (compound, label_value) VALUES
  ('CC(C)(C#N)Nc1nc(Cl)nc(NC2CC2)n1', 'class 0');

Tell me the recorded outcome of this test for CC(C)C1CCC(O)CC1 (stereo not drawn) .
class 0

Tell me the recorded outcome of this test for C=COC(=O)C(C)(CC)CCC(C)C (stereo not drawn) .
class 0

Tell me the recorded outcome of this test for CC[N+](C)(CC)CCOC(=O)C1c2ccccc2Oc2ccccc21 .
class 0

Tell me the recorded outcome of this test for Nc1ccn([C@@H]2O[C@H](CO)[C@@H](O)C2(F)F)c(=O)n1 .
class 1

Tell me the recorded outcome of this test for CCOC(=O)COC(=O)c1ccccc1C(=O)OCC .
class 0

Tell me the recorded outcome of this test for Cc1ncc([C@@H](CCCCCCc2ccc3c(n2)NCCC3)CC(=O)O)cn1 .
class 0

Tell me the recorded outcome of this test for COc1c(N2CCNC(C)C2)c(F)cc2c(=O)c(C(=O)O)cn(C3CC3)c12 (stereo not drawn) .
class 0

Tell me the recorded outcome of this test for CCOC(=O)C1=NOC(c2ccccc2)(c2ccccc2)C1 .
class 0

Tell me the recorded outcome of this test for [Ca+2] .
class 0

Tell me the recorded outcome of this test for CCOC(=O)CCC(=O)OCC .
class 0

Tell me the recorded outcome of this test for O=C(c1ccccc1)C1(O)CCCCC1 .
class 0

Tell me the recorded outcome of this test for C=CCCCCCCCCC(=O)OCC .
class 0

Tell me the recorded outcome of this test for CC1=NN(c2cccc(S(=O)(=O)O)c2)C(=O)C1 .
class 0

Tell me the recorded outcome of this test for O=C(O)CNC(=O)c1ccccc1 .
class 0

Tell me the recorded outcome of this test for NO .
class 0

Tell me the recorded outcome of this test for CC(N)C12CC3CC(CC(C3)C1)C2 (stereo not drawn) .
class 0

Tell me the recorded outcome of this test for CCOc1ccccc1OCC .
class 0

Tell me the recorded outcome of this test for CN(C)C(=O)Oc1cccc([N+](C)(C)C)c1 .
class 0

----------
Target: Glucocorticoid receptor (Homo sapiens)
Assay: qHTS assay to identify small molecule antagonists of the glucocorticoid receptor (GR) signaling pathway (AID 720692); further: on the % scale 0 is the no-effect control and ±100 the full control effect
Conditions: GR-bla HeLa, beta-lactamase FRET ratio, dexamethasone-stimulated, 18 h; series mostly up to 58.5 µM
Records with an inconclusive call do not appear. Activity calls are given as the source filed them. Calls follow the shape of the dose curve; as a rule, active = well fitted inhibition curve with a large enough effect in the signal ratio in the repeat runs (not every such curve was filed as active); inconclusive = weak or mixed curves, or effect the other way; inactive = no such curve, though single readings can be large or run the other way; the % refers to the signal ratio.
ENDPOINT_NAME: outcome

Example results:
INSERT INTO assay_data (compound, test_system, reported_measurement) VALUES
  ('CCOC(=O)CCC(=O)OCC', 'Glucocorticoid receptor (Homo sapiens)', 'inactive'),
  ('CC(COc1ccccc1)NN (stereo unspecified)', 'Glucocorticoid receptor (Homo sapiens)', 'inactive'),
  ('Cc1c(N)c(=O)n(-c2ccccc2)n1C', 'Glucocorticoid receptor (Homo sapiens)', 'inactive'),
  ('CCCCc1nc(Cl)c(CO)n1Cc1ccc(-c2ccccc2-c2nn[nH]n2)cc1', 'Glucocorticoid receptor (Homo sapiens)', 'inactive'),
  ('COc1c(N2CCNC(C)C2)c(F)cc2c(=O)c(C(=O)O)cn(C3CC3)c12 (stereo unspecified)', 'Glucocorticoid receptor (Homo sapiens)', 'inactive'),
  ('CC1OC1C1CCC2(C)OC2C1 (stereo unspecified)', 'Glucocorticoid receptor (Homo sapiens)', 'inactive'),
  ('CC(C)(CCC(=O)O)C(=O)O', 'Glucocorticoid receptor (Homo sapiens)', 'inactive'),
  ('CCCCCC(C)N (stereo unspecified)', 'Glucocorticoid receptor (Homo sapiens)', 'inactive');

Respectfully, I request outcome for each entry included below.
1. CC(=O)N[C@H]1[C@H]([C@H](O)[C@H](O)CO)OC(C(=O)O)=C[C@@H]1N=C(N)N
2. C1CCC2(CCCCO2)OC1
3. Cc1ccc(C(=O)Nc2ccc(S(=O)(=O)O)c3cc(S(=O)(=O)O)cc(S(=O)(=O)O)c23)cc1NC(=O)c1cccc(NC(=O)Nc2cccc(C(=O)Nc3cc(C(=O)Nc4ccc(S(=O)(=O)O)c5cc(S(=O)(=O)O)cc(S(=O)(=O)O)c45)ccc3C)c2)c1

["inactive", "inactive", "inactive"]
